Field: pIC50. Provide a value for each of the compounds that follow.
test system: 3T3 cells; assay: MTT cell proliferation assay, 3T3; type: cell-based, mouse; details: Mus musculus, NIH3T3, 3T3 cells, approximately 64-72 hours incubation; read-out: MTT Assay IC50, 3T3
pIC50: −log10 of the molar value.

IN: Could you share which pIC50 value was measured for CC(=O)c1ccc(-c2cc(Cl)c3c(c2)CC(CNC(=O)/C=C/c2csnn2)O3)s1 (stereo not shown) [Compound 281] ?
OUT: < 4.52

IN: Could you share which pIC50 value was measured for CC(=O)c1ccc(-c2cc(Cl)c3c(c2)CC(CNC(=O)/C=C/c2cc(C)n(-c4ccccc4)c2C)O3)s1 (stereo not shown) [Compound 301] ?
OUT: < 4.52

IN: Could you share which pIC50 value was measured for CC1(C)CN(C(=O)c2ccc(-c3cc(Cl)c4c(c3)CC(/C=C/C(=O)NCc3ccc(N)nc3)O4)cc2)C1 (stereo not shown) [Compound 362] ?
OUT: > 7.00

IN: Could you share which pIC50 value was measured for [2H]C1([2H])c2cc(-c3ccc(C(=O)N4CCOCC4)cc3)cc(Cl)c2OC1CNC(=O)/C=C/c1ccc(N)nc1 (stereo not shown) [Compound 365] ?
OUT: > 7.00

IN: Could you share which pIC50 value was measured for Cc1noc(C)c1-c1cc(Cl)c2c(c1)CC(CNC(=O)/C=C/c1ccc(N)nc1)O2 (stereo not shown) [Compound 300] ?
OUT: < 4.52

IN: Could you share which pIC50 value was measured for Nc1ccc(/C=C/C(=O)NCC2Cc3cc(-c4ccc(C(=O)N5CCOCC5)c(F)c4F)cc(Cl)c3O2)cn1 (stereo not shown) [Compound 901] ?
OUT: 5.30 to 7.00

IN: Could you share which pIC50 value was measured for CC(=O)c1ccc(-c2cc(Cl)c3c(c2)CC(CNC(=O)/C=C/c2cccnn2)O3)o1 (stereo not shown) [Compound 314] ?
OUT: 5.30 to 7.00

====

test system: MS751 cells; assay: MTT cell proliferation assay, MS751; format: cell-based, human; settings: Homo sapiens, MS751, MS751 cells; eight concentrations 1 nM to 30 μM; incubation approximately 64-72 hours; read-out: MTT Assay IC50, MS751
pIC50: −log10 of the molar value.
experimental-endpoint: pIC50

IN: Could you share which pIC50 value was measured for CC(=O)c1ccc(-c2cc(Cl)c3c(c2)CC(CNC(=O)/C=C/c2c(C)noc2C)O3)s1 (centres unmarked) ?
OUT: 5.30 to 7.00

IN: Could you share which pIC50 value was measured for CC(=O)c1ccc(-c2cc(Cl)c3c(c2)CC(CNC(=O)/C=C/c2cnc(N)nc2)O3)s1 (centres unmarked) ?
OUT: < 4.52

IN: Could you share which pIC50 value was measured for CC(=O)c1ccc(-c2cc(Cl)c3c(c2)CC(CNC(=O)/C=C/c2cn(C)nc2C)O3)s1 (centres unmarked) ?
OUT: < 4.52

IN: Could you share which pIC50 value was measured for Cc1ccc(-c2cc(Cl)c3c(c2)CC(CNC(=O)/C=C/c2cccnc2)O3)cc1 (centres unmarked) ?
OUT: 5.30 to 7.00

IN: Could you share which pIC50 value was measured for CCn1nccc1/C=C/C(=O)NCC1Cc2cc(-c3ccc(C(C)=O)s3)cc(Cl)c2O1 (centres unmarked) ?
OUT: 4.52 to 5.30

IN: Could you share which pIC50 value was measured for CC(=O)c1ccc(-c2cc(Cl)c3c(c2)CC(CNC(=O)/C=C/c2ccc(C)nc2C)O3)s1 (centres unmarked) ?
OUT: < 4.52

IN: Could you share which pIC50 value was measured for CC(=O)c1ccc(-c2ccc(Cl)c3c2CC(CNC(=O)/C=C/c2cccnc2)O3)s1 (centres unmarked) ?
OUT: 5.30 to 7.00

IN: Could you share which pIC50 value was measured for CC(=O)c1ccc(-c2cc(F)c3c(c2)CC(CNC(=O)/C=C/c2cccnc2)O3)s1 (centres unmarked) ?
OUT: 5.30 to 7.00

====

test system: MS751 cells; experiment: MTT cell proliferation assay, MS751; assay type: cell-based, human; details: Homo sapiens, MS751, MS751 cells; eight concentrations 1 nM to 30 μM; incubation approximately 64-72 hours; read-out: MTT Assay IC50, MS751
experimental-endpoint: IC50

IN: Could you share which IC50 value was measured for CC(=O)c1ccc(-c2cc(Cl)c3c(c2)CC(CNC(=O)C#Cc2cccnc2)O3)s1 (centres unmarked) ?
OUT: 0.1 to 5 µM

IN: Could you share which IC50 value was measured for CC(=O)c1ccc(-c2cc(Cl)c3c(c2)CC(CNC(=O)/C=C/c2nccn2C)O3)s1 (centres unmarked) ?
OUT: > 30 µM

IN: Could you share which IC50 value was measured for O=C(/C=C/c1cccnc1)NCC1Cc2cc(-c3cccc(CO)c3)cc(Cl)c2O1 (centres unmarked) ?
OUT: 0.1 to 5 µM

IN: Could you share which IC50 value was measured for CS(=O)(=O)c1cccc(-c2cc(Cl)c3c(c2)CC(CNC(=O)/C=C/c2cccnc2)O3)c1 (centres unmarked) ?
OUT: 0.1 to 5 µM

IN: Could you share which IC50 value was measured for CC(=O)c1ccc(-c2cc(Cl)c3c(c2)CC(CNC(=O)/C=C/c2ccc(N)nc2)O3)s1 (centres unmarked) ?
OUT: 0.1 to 5 µM

IN: Could you share which IC50 value was measured for O=C(/C=C/c1cccnc1)NCC1Cc2cc(-c3cccnc3)cc(Cl)c2O1 (centres unmarked) ?
OUT: 0.1 to 5 µM

IN: Could you share which IC50 value was measured for CC(=O)c1ccc(-c2cc(Cl)c3c(c2)CC(CNC(=O)/C=C/c2ccc[n+]([O-])c2)O3)s1 (centres unmarked) ?
OUT: > 30 µM

IN: Could you share which IC50 value was measured for O=C(/C=C/c1cccnc1)NCC1Cc2cc(-c3cccc(C(=O)O)c3)cc(Cl)c2O1 (centres unmarked) ?
OUT: 5 to 30 µM

IN: Could you share which IC50 value was measured for CC(=O)c1ccc(-c2cc(Cl)c3c(c2)CC(CNC(=O)/C=C/c2cnc4ccccc4n2)O3)s1 (centres unmarked) ?
OUT: > 30 µM

IN: Could you share which IC50 value was measured for CC(O)c1ccc(-c2cc(Cl)c3c(c2)CC(CNC(=O)/C=C/c2cccnc2)O3)s1 (centres unmarked) ?
OUT: < 0.1 µM

IN: Could you share which IC50 value was measured for CC(=O)c1ccc(-c2cc(Cl)c3c(c2)CC(CNC(=O)/C=C/c2ccc(C)o2)O3)s1 (centres unmarked) ?
OUT: > 30 µM

IN: Could you share which IC50 value was measured for CC(=O)c1ccc(-c2cc(Cl)c3c(c2)CC(CNC(=O)/C=C/c2sccc2C)O3)s1 (centres unmarked) ?
OUT: > 30 µM

IN: Could you share which IC50 value was measured for CC(=O)c1ccc(-c2cc(Cl)c3c(c2)CC(CNC(=O)/C=C/c2sccc2Cl)O3)s1 (centres unmarked) ?
OUT: > 30 µM

IN: Could you share which IC50 value was measured for Cc1cc(Cl)c2c(c1)CC(CNC(=O)/C=C/c1cccnc1)O2 (centres unmarked) ?
OUT: 5 to 30 µM

IN: Could you share which IC50 value was measured for CC(=O)c1ccc(-c2cc(Cl)c3c(c2)CC(CNC(=O)/C=C/c2ccc(Cl)nc2)O3)s1 (centres unmarked) ?
OUT: > 30 µM

IN: Could you share which IC50 value was measured for CC(=O)c1ccc(-c2cc(Cl)c3c(c2)CC(CNC(=O)/C=C/c2ccccc2N)O3)s1 (centres unmarked) ?
OUT: > 30 µM

IN: Could you share which IC50 value was measured for Cc1noc(C)c1-c1cc(Cl)c2c(c1)CC(CNC(=O)/C=C/c1cccnc1)O2 (centres unmarked) ?
OUT: 0.1 to 5 µM

IN: Could you share which IC50 value was measured for C/C=C/C(=O)NCC1Cc2cc(-c3ccc(C(C)=O)s3)cc(Cl)c2O1 (centres unmarked) ?
OUT: > 30 µM

IN: Could you share which IC50 value was measured for CC(=O)c1ccc(-c2cc(Cl)c3c(c2)CC(CNC(=O)/C=C/c2cccnc2)O3)o1 (centres unmarked) ?
OUT: < 0.1 µM

IN: Could you share which IC50 value was measured for CC(=O)c1ccc(-c2cc(Cl)c3c(c2)CC(CNC(=O)/C=C/c2nc4ccccc4s2)O3)s1 (centres unmarked) ?
OUT: > 30 µM

IN: Could you share which IC50 value was measured for CC(=O)c1ccc(-c2cc(Cl)c3c(c2)CC(CNC(=O)/C=C/c2csc(C)n2)O3)s1 (centres unmarked) ?
OUT: > 30 µM

IN: Could you share which IC50 value was measured for O=C(/C=C/c1cccnc1)NCC1Cc2cc(-c3cccc(F)c3F)cc(Cl)c2O1 (centres unmarked) ?
OUT: 0.1 to 5 µM

IN: Could you share which IC50 value was measured for CC(=O)c1ccc(-c2cc(Cl)c3c(c2)CC(CNC(=O)/C=C/c2ccc(N)cc2)O3)s1 (centres unmarked) ?
OUT: > 30 µM

IN: Could you share which IC50 value was measured for CC(=O)c1ccc(-c2cc(Cl)c3c(c2)CC(CNC(=O)/C(C)=C/c2cccnc2)O3)s1 (centres unmarked) ?
OUT: 5 to 30 µM

IN: Could you share which IC50 value was measured for CC(=O)c1ccc(-c2cc(Cl)c3c(c2)CC(CNC(=O)/C=C/c2cccnc2C)O3)s1 (centres unmarked) ?
OUT: 5 to 30 µM

IN: Could you share which IC50 value was measured for O=C(/C=C/c1cccnc1)NCC1Cc2cc(-c3ccccc3F)cc(Cl)c2O1 (centres unmarked) ?
OUT: 0.1 to 5 µM

IN: Could you share which IC50 value was measured for CC(=O)c1ccc(-c2cc(Cl)c3c(c2)CC(CNC(=O)/C=C/c2ccccc2)O3)s1 (centres unmarked) ?
OUT: > 30 µM

IN: Could you share which IC50 value was measured for CC(=O)c1ccc(-c2cc(Cl)c3c(c2)CC(CNC(=O)/C=C/c2c(Cl)nc4sccn24)O3)s1 (centres unmarked) ?
OUT: > 30 µM

IN: Could you share which IC50 value was measured for O=C(/C=C/c1cccnc1)NCC1Cc2cc(-c3ccc(Cl)cc3F)cc(Cl)c2O1 (centres unmarked) ?
OUT: 0.1 to 5 µM

IN: Could you share which IC50 value was measured for O=C(/C=C/c1cccnc1)NCC1Cc2cc(-c3ccc(C(=O)O)cc3)cc(Cl)c2O1 (centres unmarked) ?
OUT: 5 to 30 µM

IN: Could you share which IC50 value was measured for Nc1ccccc1-c1cc(Cl)c2c(c1)CC(CNC(=O)/C=C/c1cccnc1)O2 (centres unmarked) ?
OUT: 0.1 to 5 µM

IN: Could you share which IC50 value was measured for CC(=O)c1ccc(-c2cc(Cl)c3c(c2)CC(CNC(=O)/C=C/c2cscn2)O3)s1 (centres unmarked) ?
OUT: > 30 µM

These data points were gathered from patent US9938258B2.
